Quick list: relative permittivity per entry.
# Assay Procedure: relative permittivity at various frequencies (dimensionless)
# Details: 293.15 K; 101.3 kPa; Liquid; Frequency=3 MHz; OH-301

{"Line Notation": "CCCOCCO", "relative permittivity": 11.76}
{"Line Notation": "COCCO", "relative permittivity": 17.38}
{"Line Notation": "CCCCOCCO", "relative permittivity": 9.78}
{"Line Notation": "CCOCCO", "relative permittivity": 14.25}

###

Quick list: relative permittivity per entry.
# Assay Procedure: relative permittivity at various frequencies (dimensionless)
# Details: 303.15 K; 101.3 kPa; Liquid; Frequency=3 MHz; OH-301
Result Type: relative permittivity

{"Line Notation": "CCOCCO", "Result Type": "relative permittivity", "Test Value": 13.76}
{"Line Notation": "COCCO", "Result Type": "relative permittivity", "Test Value": 16.56}
{"Line Notation": "CCCCOCCO", "Result Type": "relative permittivity", "Test Value": 8.88}
{"Line Notation": "CCCOCCO", "Result Type": "relative permittivity", "Test Value": 11.19}

###

# Assay Procedure: relative permittivity at various frequencies (dimensionless)
# Details: 313.15 K; 101.3 kPa; Liquid; Frequency=3 MHz; OH-301
Result Type: relative permittivity

{"Line Notation": "CCCCOCCO", "Test Value": 7.91}
{"Line Notation": "CCCOCCO", "Test Value": 10.62}
{"Line Notation": "COCCO", "Test Value": 15.77}
{"Line Notation": "CCOCCO", "Test Value": 13.07}

###

# Assay Procedure: relative permittivity at various frequencies (dimensionless)
# Details: 308.15 K; 101.3 kPa; Liquid; Frequency=3 MHz; OH-301
Result Type: relative permittivity

{"Molecule": "CCCOCCO [2-propoxyethanol]", "Test Value": 10.91}
{"Molecule": "CCOCCO [2-ethoxyethan-1-ol]", "Test Value": 13.44}
{"Molecule": "CCCCOCCO [2-butoxyethan-1-ol]", "Test Value": 8.39}
{"Molecule": "COCCO [2-methoxyethan-1-ol]", "Test Value": 16.16}
